# assay_system: Cytochrome P450 2C19 (Homo sapiens) (UniProt P33261)
# Sequence (P33261 whole entry, looked up): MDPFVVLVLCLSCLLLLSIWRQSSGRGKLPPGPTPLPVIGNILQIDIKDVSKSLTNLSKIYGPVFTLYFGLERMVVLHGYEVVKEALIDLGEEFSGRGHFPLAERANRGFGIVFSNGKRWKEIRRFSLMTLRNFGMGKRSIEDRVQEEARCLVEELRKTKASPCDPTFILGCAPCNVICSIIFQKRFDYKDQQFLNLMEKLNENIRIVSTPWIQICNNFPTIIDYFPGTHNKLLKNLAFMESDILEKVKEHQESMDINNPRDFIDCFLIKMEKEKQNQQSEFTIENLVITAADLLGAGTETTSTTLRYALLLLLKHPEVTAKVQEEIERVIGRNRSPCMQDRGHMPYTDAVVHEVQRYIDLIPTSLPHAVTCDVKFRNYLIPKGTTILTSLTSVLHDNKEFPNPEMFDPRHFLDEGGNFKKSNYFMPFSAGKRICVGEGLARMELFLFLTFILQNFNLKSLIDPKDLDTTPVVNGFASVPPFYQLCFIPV
# test_protocol: Cytochrome panel assay with activity outcomes
# test_parameters: recombinant CYP, pro-luciferin dealkylation, luminescence, p450-cyp2c19; series mostly up to 57.1 µM
Screen size: about 16,000 compounds; about 5,800 (36%) were called active. About 23% were inconclusive and are not listed. Calls follow the shape of the dose curve; as a rule, active = well fitted curve in the direction sought with a large enough effect; inconclusive = small, poorly fitted or top-dose-only effect, or effect the other way; inactive = no such curve, though single readings can be large or run the other way. Some of the results follow.
Hi there, use one of these labels in your reply, thanks! yes for active, no for inactive

compound	label
CSc1nnc(-c2sc(-c3ccccc3)nc2C)n1C	no
CCn1c2ccccc2c2cc(/C=N/n3cn[nH]c3=S)ccc21	yes
Cc1noc(NS(=O)(=O)c2ccc(NC(=O)c3ccc(Br)o3)cc2)c1C	no
Cc1nc2cnc(N(C)C)nc2n(Cc2ccc(F)cc2)c1=O	yes
C#CCSc1nnc(-c2sc(-c3ccccc3)nc2C)n1C	yes
C[N+](C)(CCCCCC[N+](C)(C)CCCN1C(=O)c2cccc3cccc(c23)C1=O)CCCN1C(=O)c2cccc3cccc(c23)C1=O	no
CCOc1cc(/C=C2\CCC/C(=C\c3cc(Cl)c(O)c(OCC)c3)C2=O)cc(Cl)c1O	yes
CN(C)c1ncc2ncc(=O)n(C3CC3)c2n1	no

Q) Hi, do you know how `COc1ccc(C(=O)n2c(SC)nc3cc4c(cc32)OCCO4)cc1` came out in this test?
A) yes

Q) I'd appreciate the recorded outcome for `CN(C)c1ncc2nc(-c3cc(F)cc(F)c3)c(=O)n(Cc3ccc(F)cc3)c2n1` from this test.
A) no

Q) State the result this test recorded for `CN1CCC[C@@H](CC2c3ccccc3Sc3ccccc32)C1` .
A) no

Q) Recorded test outcome, item Cc1cccc(NC(=O)CC2Nc3cccc4cccc(c34)NC2=O)c1 (centres undefined)
A) yes

Q) What was the test verdict on `O=C(O)c1ccccc1-c1ccc(/C=c2\sc3nc4cc(Br)cnc4n3c2=O)o1` ?
A) yes

Q) Look up the recorded call for N#CC(c1ccc(Cl)cc1)(c1ncc(C(F)(F)F)cc1Cl)N1CCOCC1 (centres undefined) in this test.
A) yes

Q) Outcome logged for `O=C(CN(Cc1ccco1)C(=O)c1ccccc1)Nc1ccc(Cl)c(Cl)c1` in this assay:
A) yes

Q) Given `COc1ccc(C(=O)N2CCC[C@@]3(CCN(Cc4cc(C(F)(F)F)cc(C(F)(F)F)c4)C3)C2)cc1` , state the outcome it received in this test.
A) no

Q) Look up the recorded call for `N[C@H](C(=O)N[C@@H]1C(=O)N2C(C(=O)O)=C(Cl)CS[C@@H]12)c1ccccc1` in this test.
A) no

---

# assay_system: Cytochrome P450 2C19 (Homo sapiens) (UniProt P33261)
# test_protocol: Cytochrome panel assay with activity outcomes; as to activity, negative = inhibition: % is scaled to controls: 0 for no effect and ±100 for the full control effect
# test_parameters: recombinant CYP, pro-luciferin dealkylation, luminescence, p450-cyp2c19; series mostly up to 57.1 µM
Hit rate of the full screen: of about 16,000 compounds, about 5,800 (36%) were called active. Another 23% or so got no clear call; they are omitted. The list shows a part of the results.
Each entry below carries its recorded activity, negative = inhibition.

sample_smiles	assay_system	activity, negative = inhibition
CC(=O)OC[C@H]1O[C@@H](O/N=C(\C)CCN2CCCCc3nc(C)c(C)cc32)[C@H](OC(C)=O)[C@@H](OC(C)=O)[C@H]1OC(C)=O	Cytochrome P450 2C19 (Homo sapiens) (UniProt P33261)	-0.342% [at 11.4 µM] (inactive)
C[N+](C)(C)/N=C\c1ccc(O)c(O)c1	Cytochrome P450 2C19 (Homo sapiens) (UniProt P33261)	12.7% [at 11.4 µM] (inactive)
NS(=O)(=O)c1cc2c(cc1Cl)=NC(CCC(=O)O)=NS=2(=O)O	Cytochrome P450 2C19 (Homo sapiens) (UniProt P33261)	22.1% [at 11.4 µM] (inactive)

Measured activity, negative = inhibition of `O=C(O)c1ccccc1NCn1c(=S)sc2ccccc21` : -40.3% [at 11.4 µM] (inactive)

Please fill in: activity, negative = inhibition reported for `CN(C)C[C@H]1CCC[C@@H](CN(C)C)C1=O` = 19.2% [at 11.4 µM] (inactive)

Reported activity, negative = inhibition of `O=C(O)CCc1ccc(-c2ccccc2)[nH]1` : -7.89% [at 11.4 µM] (inactive)

Measured activity, negative = inhibition of `O=C1[C@H]2[C@H]3[C@H](O)[C@H](O)C/C(=N/OC[C@@H](O)COCc4ccco4)[C@@H]3CC[C@@H]2C(=O)N1Cc1ccc2c(c1)OCO2` : -24.6% [at 11.4 µM] (inactive)

Item: `C[C@@H]1CN2[C@H](c3ccc(Br)cc3)[C@H](C)CC[C@H]2C(=O)O1` | activity, negative = inhibition: -28.6% [at 11.4 µM] (inactive)

Item: `CC(C)=CCC/C(C)=C/CO/N=C1/C[C@@H](O)[C@@H](O)[C@@H]2[C@@H]3C(=O)N(C4CCCCC4)C(=O)[C@H]3CC[C@H]12` | activity, negative = inhibition: -23.1% [at 11.4 µM] (inactive)
